Target: SpMyo1
Assay: SPOT peptide array binding signal intensity (averaged, normalized) (arbitrary units (background-subtracted, floor 0; scale differs between SH3 domains)); higher = stronger binding of the SH3 domain to the peptide
We use 8 as the dividing line for SPOT peptide array binding signal intensity: on or above the line is condition met, below is condition not met.

Some entries whose results are on file:
>>> label_class("AATTSTPPLPRRRAT")
"condition met"
>>> label_class("NMLKKKPLKKPLKRF")
"condition met"
>>> label_class("AAHKTKPSIPPKKVE")
"condition not met"
>>> label_class("LSKRLPLRFPEHTSS")
"condition not met"
>>> label_class("NRLRKRLNLPSEISI")
"condition not met"

Enquiry: Decide: SPOT peptide array binding signal intensity of RTRRRPPPPPIPSTQ >= 8?
Return: condition met

Enquiry: Decide: SPOT peptide array binding signal intensity of NMLSRPRLAKLPSIR >= 8?
Return: condition met

Enquiry: Decide: SPOT peptide array binding signal intensity of NILKRRPLKLEAPSK >= 8?
Return: condition not met

Enquiry: Decide: SPOT peptide array binding signal intensity of HKVLRPFLLRRLKKD >= 8?
Return: condition not met

Enquiry: Decide: SPOT peptide array binding signal intensity of FYNRTAFQLPGDARV >= 8?
Return: condition met

Enquiry: Decide: SPOT peptide array binding signal intensity of GRLRPKRIAPWHLIQ >= 8?
Return: condition not met

Enquiry: Decide: SPOT peptide array binding signal intensity of VPPVPLPFGIPPFPM >= 8?
Return: condition met

Enquiry: Decide: SPOT peptide array binding signal intensity of YSRKKLPVVLSKMTL >= 8?
Return: condition not met
